Test system: HDF
experiment.notes: Cytotoxicity (IC50) on HDF
Type: cell-based, human
conditions.used: normal cells; Table 1, value in parentheses
measure.name: pIC50
Would you please state pIC50, meaning minus log10 of the concentration in mol/L, as a bare number?

Q: I'd like to know its pIC50. The compound in question is CCC/C=C1\OC(=O)c2ccccc21 [BP-Z form]
Ans: 3.46

---

experiment.notes: Cytotoxicity (IC50) on HUVEC
Type: cell-based, human
conditions.used: human, human umbilical vascular endothelial cells (HUVEC); normal cells; Table 1; read-out: Cytotoxicity, IC50 HUVEC
measure.name: IC50

Q: Need IC50, item CCCC=C1OC(=O)c2ccccc21 [BP, n-Butylidenephthalide]
Ans: > 100 µg/mL
